Source: the supplement of paper PMC9170038

Entries annotated with measured apparent KD of K4 kissing-loop reporter
# System: K4 kissing-loop RNA reporter
# procedureSummary: apparent KD of K4 kissing-loop reporter; higher = weaker reporter binding
# runParameters: Eterna round: R107; input ligand: FMN 200 uM
Please state the figure in µM; there is no need to write the unit.

Worked examples, 2 sequences total:
GGUCCGGGCUCGGCCGCCACUCCCUCCUGCCGCAAGGUGGGAUACCGAGUGAUGUUCGGUUGGAGGAGGACCGGGAGCCCGGACC [#2 Exclusion - Tryptophan B Attempt #14 (HarryS)]
0.115
GCGAGUUUGCAAGGAUAUCGACCGUCGUACGACCAGUGAUGUUGGGAGUACUUUCAAAAUCGAUUUCGAGAAGGUGCUGGCAUCA [theeternabot_sameState_KL_FMN_B_12]
0.271

Which apparent KD of K4 kissing-loop reporter is reported with K4 kissing-loop RNA reporter for this entry: UGUGUUUACCUGACUCAGUGAUGUUGAGAAGGAGCGUGCAAAGGCACAGGUAGGUCGCUCAACCUAAAUUCAGGUGAGCACUAAA ?
0.246

Form field: apparent KD of K4 kissing-loop reporter recorded for GGUUUAUAGGAGGAUACCAGUACGGAUAAAGUACGUUAAUAGUAGAGUGAUGUUCUAAAGUACCCUUGGCAGCUUAGAUUAAGUU [ExTheophylB.J] with K4 kissing-loop RNA reporter (enter value)
0.072

Find the measured apparent KD of K4 kissing-loop reporter: item UGGCCUUAAAUUCUAGGAUUAGCGACGUACAAGGAUAUUCGUCAUCGAAGAAGGUGUAGCUAGGAGAGUGAUGUUUUCCAUCGCC [theeternabot_sameState_KL_FMN_A_15] , target or system K4 kissing-loop RNA reporter.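 Note: bound reporter read as fluorescence of individual clusters on recovered sequencing chips by microscopy, with normalized cluster intensities fitted with a binding model.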
0.64

Give apparent KD of K4 kissing-loop reporter (K4 kissing-loop RNA reporter) of the following sequence: AGGAGCGUGGGAUGGAAAUCGCACGCUCCUCGAGGACCGGUACGGCCGCCACUCGCUCGCGCCGAGUGAUGUUCGGCCGGCGAAC [#2 Same State - Tryptophan A Attempt #11 (HarryS)]
0.131

Hello, I am looking for reported apparent KD of K4 kissing-loop reporter with K4 kissing-loop RNA reporter for AGAAACUUGUAUGUCGGGUGUGCGCGCGAUACCAGCCAAAUGGAUGGCCCUUGGCAGCGCAGCGAGUGAUGUUCGCCCGCUUGAC [Exclusion Theophylline A GF 22] . Could you help?
0.251

Enter reported apparent KD of K4 kissing-loop reporter observed with K4 kissing-loop RNA reporter for GCCUACGCUGCAGGAUAUAGUUACAGCGACUUAGCCGUUGUAUGUCCAUGGUUCAGUGAUGUUGAACUAGAAGGGCAGCGUAGGC [#02 K4 FMN B Exclusion]
0.285

----------
# System: MS2 coat protein
# procedureSummary: apparent KD of MS2 coat protein; designed switch direction (-1 OFF switch, 1 ON switch): -1; higher = weaker reporter binding
# runParameters: input ligand: none
Mark 0 (no) for apparent KD of MS2 coat protein values under 20 nM, and 1 (yes) for everything at or above.

Worked examples follow.
GGAUCACAUGUCAGGAUAUGCAGGUCCUUGGAUCUGCAGAAGGGACAUGAGGAUCACCCAUGUCAUGAAGAUCC [Mat - Exclusion 4 - Eli Mod - D51] (Eterna round: R97, puzzle: Brourd's mod of Exclusion 4)
1 (yes)
AUCAGCUCGUGAGGAUAUACAUGAGGAUCACCCAUGUGAUCAAUAGCAGCUUCGGCUGCAUACAUGUAGAAGGCACGAGCUGAU [ENG2/6-A3] (Eterna round: R96, puzzle: Exclusion NG 2)
1 (yes)

Could you tell me if the measured apparent KD of MS2 coat protein of UGAACUGUAGGAUAUACAUGAGGAUCACCCAUGUCCCUUCGAUGAGGUCCCACCACGUGUAGAAGGAUGGAAGA [Eternabot (L1) Solution 11] (Eterna round: R97, puzzle: Exclusion 3) reaches 20 nM or more?
1 (yes)

Reported apparent KD of MS2 coat protein reaches at least 20 nM for GGUUUGGGAGGAUAUGGUUUUAAUAACAUGAGGAUCACCCAUGUAAAUAGAUCCUCGAGGCCAGAAGGCUCGGGCC [-24.9, -23.72 kcal, A 28%] (Eterna round: R97, puzzle: Exclusion 5) ?
1 (yes)

----------
# Tested on: MS2 coat protein
# procedureSummary: apparent KD of MS2 coat protein; designed switch direction (-1 OFF switch, 1 ON switch): -1; higher = weaker reporter binding
# runParameters: input ligand: FMN 200 uM
measuredParameter: apparent KD of MS2 coat protein (nM)
Report only the number, with the unit nM understood.

These recorded examples may help you get a feel for the data.
ACAUGUCAUCGAGGAUAUUGGACACAUGAGGAUCACCCAUGUACCCGGAGGCUUUACUAUGAGUUCGAGAAGGCGAUGUACAUG [Ex NG2 #73] (Eterna round: R96, puzzle: Exclusion NG 2)
83.7
GGUCAGACGGUAGGAUAUCUAUAUCGAGUGACCCUUUCAUAACAUGAGGAUCACCCAUGUCGGUGGGAGAAGGGCCGUACGGCG [salish99_ExNG02_R04_007] (Eterna round: R96, puzzle: Exclusion NG 2)
62.5
ACAUGUCAUCGAGGAUAUUGUACACAUGAGGAUCACCCAUGUACUCGGUUGCUCUAGCAUGAGUUCGAGAAGGCGAUGUACAUU [Ex NG2 #81] (Eterna round: R96, puzzle: Exclusion NG 2)
178
CAGUACUGAGGAUAUACAUGAGGAUCACCCAUGUGUUCCUGCUAGGAAACUAGCAAAAGUAGAAGGCAGUACUG [salish99_ex3_r3_098x] (Eterna round: R96, puzzle: Exclusion 3)
516

Please turn your attention to the following entry.
apparent KD of MS2 coat protein lookup needed for GGGCCCGGAGGAUAUACAAUGGGCCCGGGAAACCGGGUUUUACAUGAGGAUCACCCAUGUAGAAGGCCGGGCCC [-42.8, -38.99 kcal A 24%, 5a,0] (Eterna round: R97, puzzle: Exclusion 2) , thanks.
15.6

----------
# Tested on: MS2 coat protein
# procedureSummary: apparent KD of MS2 coat protein; designed switch direction (-1 OFF switch, 1 ON switch): 1; higher = weaker reporter binding
# runParameters: input ligand: none
measuredParameter: apparent KD of MS2 coat protein (nM)
Field format: number, assumed nM, no unit text.

Solved cases (3 shown):
GGAGCCGGCCUAGGAUAUUUCAUAAAAUUACAUGAGGAUCACCCAUGUAGGCCAGAAGGCCUUGGGAAGAAGGAGGUCGGCUCC [Loop Effect - U28,U29] (Eterna round: R96, puzzle: Same State NG 2)
28.2
UGUUGUUAAUUAGGAUAUGGGCACAUGAGGAUCACCCAUGUAUUGUCGAUGCUAUGUGGACACGUUUAGAAGGAAUGGCUAACA [SameState NG2 #91] (Eterna round: R96, puzzle: Same State NG 2)
64.8
GCUAGAAAUAAAGCCAACAUGAGGAUCACCCAUGUAUGUUGGUAGGAUAUCGUUUGCAAAGCAAACGAGAAGGGCCAAACUAGC [Mat - Same State NG 3 - JL Mod - D20] (Eterna round: R96, puzzle: Same State NG 3)
137

Field request: apparent KD of MS2 coat protein | item: GCUCGAUGAUAGGCCUACAUGAGGAUCACCCAUGUAAGUGGGCAGGAUAUCUACAUGCAGAAUGUAGAGAAGGGCCCGUCGAGC [SameState NG3 #55] (Eterna round: R96, puzzle: Same State NG 3)
83.9

----------
# Tested on: MS2 coat protein
# procedureSummary: apparent KD of MS2 coat protein; designed switch direction (-1 OFF switch, 1 ON switch): 1; higher = weaker reporter binding
# runParameters: input ligand: microRNA oligo, concentration not stated
measuredParameter: apparent KD of MS2 coat protein

GCUCGACGUAUUGUCUACAUGAGGAUCACCCAUGUAGGUGCGGAGGAUAUUUACGUGUCUCAUGUAGAGAAGGUCGUGUCGAGC [SameState NG3 #95] (Eterna round: R96, puzzle: Same State NG 3)
47.4 nM
UUAAUUUACUGAGGAUAUCGUGUCGACUGAGGUGACAUGAGGAUCACCCAUGUGAGAAGAGGUAUCGAGAAGGCAGUAUUCAUA [JR_SSNG2_Sub021] (Eterna round: R96, puzzle: Same State NG 2)
545 nM

Proceed to the following item.
Notebook entry, MS2 coat protein assay: apparent KD of MS2 coat protein of AUCAAAAGAGGAGGAUAUGCAGAGGAUCACCCUGUAGAAGGCCACAGAGGAGGAUAUGCAGAGGAUCACCCUGUAGAAGGCCUC [pwkr ssNG DX.16] (Eterna round: R96, puzzle: Same State NG 1) = ?
156 nM

----------
# System: MS2 coat protein
# procedureSummary: apparent KD of MS2 coat protein; higher = weaker reporter binding
# runParameters: Eterna round: R107; input ligand: theophylline 20 uM
measuredParameter: apparent KD of MS2 coat protein (µM)
Respond with the bare value in µM.

Example entries and their recorded answers appear below.
GUAAUUAUAAGAAGGAGCGUCGAAAAUGGGUAAACAUGAGGAUCACCCAUGUAAAGGGAACGACAGGUAGGUCGCUUAUGGUUAC [AstromonsSSArgB#24]
0.245
AGCAACAAGUCGGCCGCCACUCAUUUAACAUGAGGAUCACCCAUGUGAAUAACAUGAUUGUAAUAGAGGACCGGGACAGUUGCAU [JR_SSTryptoB_Sub014]
0.0855
UCGUGGUCCGCAAGGACCGGGAGUUGCGAUACCAGCACGGUAACGUGCCCUUGGCAGCGCACAUGAGGAUCACCCAUGUGGUGUU [#1 Exclusion - Theophylline A Attempt #14 (HarryS)]
0.305

Which apparent KD of MS2 coat protein is reported for this sequence? ACGUCAUGGAGAACGUGACGACUUGUCGAUACCAGUGUUUGAUAGCGCCCUUGGCAGCGAACAUGAGGAUCACCCAUGUCAAGGG [#11 SameState-TheophyllineA]
0.0846

I would be grateful if you could share the reported apparent KD of MS2 coat protein for UUUGCACAUGAGGAUCACCCAUGUACAGAUACCAGCCUCAUCUACGGCCCUUGGCAGCUGAGAUAAUGGUGACGUGAUGGGCUUU [Edaniser] .
0.0172

Please look up its apparent KD of MS2 coat protein: GAUUGGUAUAGAAGGAGCGUCGAAAAUGGGUAAACAUGAGGAUCACCCAUGUAAAGGGAACGACAGGUAGGUCGCUAUAUUAAUC [AstromonsSSArgB#30]
0.256

Please report the recorded apparent KD of MS2 coat protein for UCGGGAACAUGAGGAUCACCCAUGUCAGAAGGAGCGCUGAGAGAAGCAGGUAGGUCGCUGACGCAGGAGCUCUCUUCCUGUACGC [#22 Exclusion - Arginine A] .
0.0464

What does the record list as apparent KD of MS2 coat protein for UAAAAUAAAAGGGUGAAGGUAUAAACAGAUACCAGCCAGAUAACUGGCCCUUGGCAGCUGAAUGACAUGAGGAUCACCCAUGUCU [TheoAS 21 #OpenEnded #Ms2Late] ?
0.0177

Name the recorded apparent KD of MS2 coat protein for GGUCUCGAGGGCGAUACCAGCUUGAUCGUACUGGCCUGGUACAUGAGGAUCACCCAUGUAAGCCCUUGGCAGCGCGCUCGAGACC [#1 Exclusion - Theophylline B Attempt #6 (HarryS)] .
0.0185

# apparent KD of MS2 coat protein lookup, item ACAAGUCCUCAUGAUACCAGCGAUGAGACAUAGUCUCAACAUGAGGAUCACCCAUGUAUUCGCCCUUGGCAGCAUACGGUUUUUG [Arleer]
0.373

For the sequence shown here, ACGUCCAGGUUAAUCGUGGACAUGGUCGAUACCAGUAUUUUAAUCUACCCUUGGCAGCGACAUGAGGAUCACCCAUGUGCGAUGA [XTheo A #15] , give the reported apparent KD of MS2 coat protein.
0.0147

Item GCUGUACCAUGAAGGAGCGCUCACGCAGUUGCGGGUACAUGAGGAUCACCCAUGUUGGGUGAGCAGGUAGGUCGCAUGGUACAGC [SSAB #17] has what recorded apparent KD of MS2 coat protein?
0.193
